The reported measurements were obtained from paper PMC7571124.

# ASSAY_TARGET: neuraminidase of A/PR/8/34 H1N1 (Influenza A virus)
# Construct: Samples of cell supernatant infected with whole virus were used as source of enzymes; clarified culture supernatant
# PROCEDURE_TEXT: biochemical
Residues, ends and D or L forms follow the SMILES beside them.
OBSERVED_PROPERTY: IC50 (mM)
Express the result in mM but write the number alone.

// solved cases for IC50 follow
# get_value(readout='IC50', item= CSCCC(NC(=O)C(Cc1ccccc1)NC(C)=O)C(=O)O (stereo not drawn) [AAMOL, N-acetylphenylalanylmethionine] (Ac-Phe-Met-OH; configuration not given here) )
57

Look up IC50 for this molecule: O=C1O[C@H]([C@@H](O)CO)C(O)=C1O
32

Could you now consider this next molecule?
Sample CCCN(CCC)S(=O)(=O)c1ccc(C(=O)O)cc1 — what was its IC50?
23

###

# ASSAY_TARGET: neuraminidase of A/PR/8/34 H1N1 (Influenza A virus, UniProt P03468)
# Construct: Samples of cell supernatant infected with whole virus were used as source of enzymes; clarified culture supernatant
# PROCEDURE_TEXT: biochemical
Residues, ends and D or L forms follow the SMILES beside them.
Reported values of Ki for individual entries

Example entries begin here.
Using the record for CCCN(CCC)S(=O)(=O)c1ccc(C(=O)O)cc1 , report its Ki.
10.5 mM

Ki lookup needed for CSCCC(NC(=O)C(Cc1ccccc1)NC(C)=O)C(=O)O (stereo not drawn) [AAMOL, N-acetylphenylalanylmethionine] (Ac-Phe-Met-OH; configuration not given here) , thanks.
15.3 mM

Next:
Fill in: Ki of O=C1O[C@H]([C@@H](O)CO)C(O)=C1O is ___
26.4 mM

###

# PROCEDURE_TEXT: in vitro
# CONDITION_SET: dog
Residues, ends and D or L forms follow the SMILES beside them.
OBSERVED_PROPERTY: CC50 (µM)
Quick note: give the figure in µM, leave out the unit.

Fill in: CC50 of O=C1O[C@H]([C@@H](O)CO)C(O)=C1O is ___
0.3

From here, focus on the item given below.
What value of measured CC50 is listed for CSCCC(NC(=O)C(Cc1ccccc1)NC(C)=O)C(=O)O (stereo not drawn) [AAMOL, N-acetylphenylalanylmethionine] (Ac-Phe-Met-OH; configuration not given here) ?
16

###

# ASSAY_TARGET: neuraminidase of A/CHK/MX/1994 H5N2 (Influenza A virus, UniProt Q0A2F2)
# Type: biochemical, Influenza A virus A/Chicken/Mexico/31381-7/1994 (H5N2)
Residues, ends and D or L forms follow the SMILES beside them.
OBSERVED_PROPERTY: inhibition mechanism

# query: inhibition mechanism of entry CSCCC(NC(=O)C(Cc1ccccc1)NC(C)=O)C(=O)O (stereo not drawn) [AAMOL, N-acetylphenylalanylmethionine] (Ac-Phe-Met-OH; configuration not given here)
competitive

Quick one: inhibition mechanism for CC(=O)N[C@H]1[C@H]([C@H](O)[C@H](O)CO)OC(C(=O)O)=C[C@@H]1N=C(N)N ?
competitive

Reported inhibition mechanism for CCCN(CCC)S(=O)(=O)c1ccc(C(=O)O)cc1 : what is it?
competitive
